In this section, each of the binders is paired with its reported Mean % WT Binding.
biological target: human CD33 L93A (human, UniProt P20138 18-364); test: flow cytometry on HEK293-T, alanine scan
Sequence (P20138 18-364 L93A limits assumed): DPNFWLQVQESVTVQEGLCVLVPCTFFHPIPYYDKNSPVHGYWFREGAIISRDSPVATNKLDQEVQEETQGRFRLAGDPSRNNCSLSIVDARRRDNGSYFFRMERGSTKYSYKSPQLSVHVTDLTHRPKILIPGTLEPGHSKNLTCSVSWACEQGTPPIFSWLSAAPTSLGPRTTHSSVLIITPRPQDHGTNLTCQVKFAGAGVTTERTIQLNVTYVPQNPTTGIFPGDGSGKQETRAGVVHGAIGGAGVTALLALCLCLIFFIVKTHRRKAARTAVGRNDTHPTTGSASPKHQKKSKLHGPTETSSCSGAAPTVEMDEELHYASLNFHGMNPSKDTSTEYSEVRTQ
The answer consists of two parts: a number and, after it, its unit.

Below, each entry is followed by its recorded Mean % WT Binding result.
Refmab #3 (antibody, V domains shown, The alanine scan used IgG or Fab) VH: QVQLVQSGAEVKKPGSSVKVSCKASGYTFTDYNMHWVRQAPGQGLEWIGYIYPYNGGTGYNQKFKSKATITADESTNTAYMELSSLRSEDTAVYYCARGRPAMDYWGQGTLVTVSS VL: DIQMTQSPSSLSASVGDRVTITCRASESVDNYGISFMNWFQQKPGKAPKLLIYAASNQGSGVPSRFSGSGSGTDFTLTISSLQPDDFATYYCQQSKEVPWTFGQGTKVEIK :: 120 % WT binding
Refmab #1 (antibody, V domains shown, The alanine scan used IgG or Fab; also called hP67.6) VH: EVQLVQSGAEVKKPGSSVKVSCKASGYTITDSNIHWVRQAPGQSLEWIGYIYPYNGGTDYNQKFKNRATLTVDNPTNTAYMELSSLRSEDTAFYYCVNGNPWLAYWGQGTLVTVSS VL: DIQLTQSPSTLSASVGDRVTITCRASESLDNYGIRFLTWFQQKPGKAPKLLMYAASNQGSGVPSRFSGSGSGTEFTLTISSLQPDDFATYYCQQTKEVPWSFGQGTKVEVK :: 88.6 % WT binding

Query: Please give measured Mean % WT Binding of the following entry: Refmab #4 (antibody, V domains shown, The alanine scan used IgG or Fab) VH: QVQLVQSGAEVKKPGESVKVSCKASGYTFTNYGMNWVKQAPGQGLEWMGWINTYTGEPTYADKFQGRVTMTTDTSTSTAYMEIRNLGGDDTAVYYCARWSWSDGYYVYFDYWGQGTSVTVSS VL: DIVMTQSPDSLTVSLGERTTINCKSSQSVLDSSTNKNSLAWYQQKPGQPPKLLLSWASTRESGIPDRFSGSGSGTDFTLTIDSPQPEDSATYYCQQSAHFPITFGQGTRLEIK
Result: 63.9 % WT binding
